The origin of these recorded values is ChEMBL document CHEMBL1201861.

# Tested on: Ca-Ski;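 note: cell viability assay measuring inhibition of Ca-Ski cell growth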
# assay_info: cells
# Type: functional, cell-based
# condition_label: Homo sapiens
# Description: SANGER: Inhibition of human Ca-Ski cell growth in a cell viability assay.
Would you kindly list IC50 for each of these molecules?

Ask: Return IC50 for the following molecule: CN(C)C/C=C/C(=O)Nc1cc2c(Nc3ccc(F)c(Cl)c3)ncnc2cc1O[C@H]1CCOC1
Result: > 500 nM

Ask: Return IC50 for the following molecule: C=CCc1cccc(/C=N/NC(=O)CN2CCN(Cc3ccccc3)CC2)c1O
Result: > 2560 nM

Ask: Return IC50 for the following molecule: COc1ccc(C2=N[C@@H](c3ccc(Cl)cc3)[C@@H](c3ccc(Cl)cc3)N2C(=O)N2CCNC(=O)C2)c(OC(C)C)c1
Result: > 8000 nM
